Experiment: Quantitative High-Throughput drug screen in 47 multiple myeloma cell lines against the NCATS MIPE library collection: RPMI8226_ATCC cell viability assay (AID 1919871); further: nearly all actives have a fitted effect of over 30% in size
Conditions: RPMI8226 myeloma viability, CellTiter-Glo ATP luminescence, 48 h; series mostly up to 45.8 µM
Results filed as inconclusive are left out. Active and inactive are the calls of the source. The call rests on the fitted dose curve; in most records, active means well fitted cell-killing curve with a large enough effect; inconclusive means small, poorly fitted or top-dose-only effect, or effect the other way; inactive means no such curve, though single readings can be large or run the other way.
Answer with one of the outcomes active, inactive

Answered examples (3):
>  <molecule>
CC1=NN=C(c2ccc(N)cc2)c2cc3c(cc2C1)OCO3

>  <classification>
inactive

$$$$
>  <molecule>
CC1=C(O)C(=O)C=C2C1=CC=C1[C@@]2(C)CC[C@@]2(C)[C@@H]3C[C@](C)(C(=O)O)CC[C@]3(C)CC[C@]12C

>  <classification>
active

$$$$
>  <molecule>
CCCC[N+]1(C)[C@H]2CC(OC(=O)[C@H](CO)c3ccccc3)C[C@H]1[C@H]1O[C@H]12 (stereo not given in full)

>  <classification>
inactive

$$$$

stdin: Answer briefly: the call reported for O=[N+]([O-])c1ncc[nH]1 in this assay.
stdout: inactive

stdin: Let us now turn to CCOC(=O)c1cncn1[C@H](C)c1ccccc1
stdout: inactive

stdin: Please answer likewise for C=C1C[C@H]2[C@H]3CCC(=O)[C@@]3(C)CC[C@@H]2[C@@]2(C)C=CC(=O)C=C12
stdout: active

stdin: Next: COc1ccc(N(C(=O)Oc2c(C)cccc2C)c2ccnc(Nc3ccc(N4CCN(C)CC4)cc3)n2)c(OC)c1
stdout: active

stdin: Now consider CCc1c(C(=O)C(N)=O)c2c(OCC(=O)O)cccc2n1Cc1ccccc1 and answer again.
stdout: inactive

stdin: What do we get for CCN1CCN(C(=O)Cc2ccc(Nc3ncc(F)c(Nc4ccc(C(=O)Nc5ccccc5Cl)cc4)n3)cc2)CC1 ?
stdout: active

stdin: Another molecule to check: C[C@H]([C@H](O)CCC(C)(C)O)[C@H]1CC[C@@]2(O)C3=CC(=O)[C@@H]4C[C@@H](O)[C@@H](O)C[C@]4(C)[C@@H]3CC[C@]12C
stdout: active
